experimental_protocol: Half life in mouse at 2 mg/kg, iv administered as infusion or 2 mg/kg, po via gavage measured up to 24 hrs by LC-MS analysis
Type: ADME, organism-based
experimental_setup: in vivo
quantity_kind: half-life (h)
Give just the numeric value; h need not be written.

Query :: Indicate its recorded half-life; the molecule in question is CC(C)Nc1cc(Nc2ccn3nccc3n2)ncc1C(=O)NC[C@@H](F)C(C)(C)O
Result :: 2

###

experimental_protocol: Drug uptake in imiquimod-induced C57BL/6 mouse model of psoriasis at 10 mg/kg, po dosed via gavage twice daily and measured after 8 hrs by LC-MS analysis
Type: ADME, organism-based
experimental_setup: in vivo, read-out: Drug uptake
quantity_kind: concentration at 8 h (nM)
Could you give me the number in nM? Just the number is fine.

Query :: Entry CC(C)Nc1cc(Nc2nc3ccnn3cc2F)ncc1C(=O)NC[C@@H](F)C(C)(C)O needs its concentration at 8 h filled in; supply it.
Result :: 494
